- Test system: HepG2
- Protocol description: cells
- Experimental context: Homo sapiens, HepG2, 72 h
- Description: Antiproliferative activity against human HEPG2 cells assessed as inhibition of cell growth measured after 72 hrs by plate reader assay
pIC50: −log10 of the molar value.
Below, each entry is listed with its recorded pIC50.

{"Compound": "Cc1cc(Cl)ccc1NC(=O)Nc1nc(NC2CC2)cc(Sc2c[nH]c3ccccc23)n1", "pIC50": 5.01}
{"Compound": "COc1ccc(NC(=O)Nc2nc(Sc3c[nH]c4ccccc34)cc(N3CCCC3)n2)cc1", "pIC50": 4.69}
{"Compound": "CNC(=O)c1cc(Oc2ccc(NC(=O)Nc3ccc(Cl)c(C(F)(F)F)c3)cc2)ccn1 [SORAFENIB]", "pIC50": 5.24}
{"Compound": "Cc1ccc(NC(=O)Nc2nc(Nc3ccccc3)cc(Sc3c[nH]c4ccccc34)n2)cc1", "pIC50": 4.83}
{"Compound": "Cc1cc(Cl)ccc1NC(=O)Nc1nc(Sc2c[nH]c3ccccc23)cc(N2CCOCC2)n1", "pIC50": 5.08}
{"Compound": "O=C(Nc1ccccc1)Nc1nc(Sc2c[nH]c3ccccc23)cc(N2CCOCC2)n1", "pIC50": 5.15}
{"Compound": "Cc1cc(Cl)ccc1NC(=O)Nc1nc(Sc2c[nH]c3ccccc23)cc(N2CCCC2)n1", "pIC50": 5.15}
{"Compound": "COc1cc(NC(=O)Nc2nc(Nc3cc(OC)cc(OC)c3)cc(Sc3c[nH]c4ccccc34)n2)cc(OC)c1", "pIC50": 4.61}
{"Compound": "Cc1ccc(C)c(NC(=O)Nc2nc(Sc3c[nH]c4ccccc34)cc(N3CCCCC3)n2)c1", "pIC50": 5.19}
{"Compound": "O=C(Nc1ccccc1)Nc1nc(Sc2c[nH]c3ccccc23)cc(N2CCCC2)n1", "pIC50": 4.94}
{"Compound": "COc1ccc(NC(=O)Nc2nc(Sc3c[nH]c4ccccc34)cc(N3CCN(c4ccccn4)CC3)n2)cc1", "pIC50": 4.94}
{"Compound": "COc1ccc(NC(=O)Nc2nc(Sc3c[nH]c4ccccc34)cc(N3CCCCC3)n2)cc1", "pIC50": 4.77}
{"Compound": "O=C(Nc1ccccc1)Nc1nc(Sc2c[nH]c3ccccc23)cc(N2CCN(Cc3ccccc3)CC2)n1", "pIC50": 5.09}
{"Compound": "O=C(Nc1ccc(Cl)cc1)Nc1nc(Sc2c[nH]c3ccccc23)cc(N2CCCC2)n1", "pIC50": 5.10}
{"Compound": "COc1ccc(NC(=O)Nc2nc(Sc3c[nH]c4ccccc34)cc(N3CCOCC3)n2)cc1", "pIC50": 4.99}
{"Compound": "COc1ccc(NC(=O)Nc2nc(Nc3cc(OC)cc(OC)c3)cc(Sc3c[nH]c4ccccc34)n2)cc1", "pIC50": 4.76}
{"Compound": "Cc1ccc(C)c(NC(=O)Nc2nc(Sc3c[nH]c4ccccc34)cc(N3CCN(Cc4ccccc4)CC3)n2)c1", "pIC50": 4.79}
{"Compound": "COc1ccc(NC(=O)Nc2nc(Sc3c[nH]c4ccccc34)cc(N3CCN(Cc4ccccc4)CC3)n2)cc1", "pIC50": 4.67}
{"Compound": "Cc1cc(Cl)ccc1NC(=O)Nc1nc(Sc2c[nH]c3ccccc23)cc(N2CCN(c3ccccn3)CC2)n1", "pIC50": 5.12}

---

- Test system: HepG2
- Protocol description: cells
- Experimental context: Homo sapiens, HepG2, 72 h

{"Molecular string": "O=C(Nc1ccccc1)Nc1nc(NC2CC2)cc(Sc2c[nH]c3ccccc23)n1", "IC50": "14.3 µM"}
{"Molecular string": "O=C(Nc1ccccc1)Nc1nc(Sc2c[nH]c3ccccc23)cc(N2CCN(c3ccccn3)CC2)n1", "IC50": "8.93 µM"}
{"Molecular string": "Cc1cc(Cl)ccc1NC(=O)Nc1nc(Nc2ccccc2)cc(Sc2c[nH]c3ccccc23)n1", "IC50": "8.37 µM"}
{"Molecular string": "O=C(Nc1ccc(Cl)cc1)Nc1nc(Sc2c[nH]c3ccccc23)cc(N2CCCCC2)n1", "IC50": "14.8 µM"}
{"Molecular string": "O=C(Nc1ccccc1)Nc1nc(Sc2c[nH]c3ccccc23)cc(N2CCCCC2)n1", "IC50": "20.9 µM"}
{"Molecular string": "O=C(Nc1ccccc1)Nc1nc(Nc2ccc(Cl)cc2)cc(Sc2c[nH]c3ccccc23)n1", "IC50": "12.6 µM"}
{"Molecular string": "O=C(Nc1ccccc1)Nc1nc(Nc2ccccc2)cc(Sc2c[nH]c3ccccc23)n1", "IC50": "14.4 µM"}
{"Molecular string": "O=C(Nc1ccc(Cl)cc1)Nc1nc(Sc2c[nH]c3ccccc23)cc(N2CCOCC2)n1", "IC50": "22.5 µM"}
{"Molecular string": "Cc1cc(Cl)ccc1NC(=O)Nc1nc(Sc2c[nH]c3ccccc23)cc(N2CCN(Cc3ccccc3)CC2)n1", "IC50": "11.7 µM"}
